Reference for the values: ChEMBL document CHEMBL3045304

- Tested on: Lactuca sativa
- assay overview: Stimulation of hypocotyl length of Lactuca sativa cv. Roman (lettuce) at 0.1 mM or 1 mM after 5 days relative to untreated control
- Assay type: functional
Activity calls are given as the source filed them. The rule behind the calls is not given here.

compound	Activity
C=C1CC[C@H]2C(=C)CC[C@@H]3[C@H](OC(=O)[C@H]3CO)[C@@H]12	inactive
C=C1C(=O)O[C@H]2[C@H]1CCC(=C)[C@@H]1CCC(=C)[C@@]12O	inactive
C=C1C(=O)O[C@H]2[C@H]1CCC(=C)[C@]13C[C@@H](O)C(=C)[C@]21OC(C)(C)O3	inactive
C=C1CC[C@H]2C(=C)CC[C@@H](C(=C)CO)[C@H](O)[C@@H]12	<20%
C=C1C(=O)O[C@H]2[C@H]1CCC(=C)[C@]1(O)C[C@@H](O)C(=C)[C@]21O	20%
CC1=CC(=O)C2=C(C)C[C@H](O)[C@H]3[C@H](OC(=O)[C@@H]3C)[C@@H]12 [8ALPHA-HYDROXYACHILLIN]	inactive
C=C1C(=O)O[C@H]2[C@H]1C[C@@H](O)C(=C)[C@@H]1C[C@@H](O)C(=C)[C@@]12O	<20%
C=C1[C@@H]2[C@H]3OC(=O)C(=C)[C@@H]3CCC(=C)[C@@H]2C[C@@H]1O	20%
C=C1CC[C@H]2[C@H](C)C(=O)O[C@@H]2[C@@]2(O)C(=C)[C@H](O)C[C@@]12O	>40%
C=C1CC[C@H]2C(=C)CC[C@H]3C(=C)C(=O)O[C@@H]3[C@@H]12 [DEHYDROCOSTUSLACTONE]	<20%
C=C1CC[C@H]2[C@H](CO)C(=O)O[C@@H]2[C@@]2(O)C(=C)[C@H](O)C[C@@H]12	>40%

----------
# Lookup of reported inhibition (INH) keyed by entry
- Tested on: Lepidium sativum
- assay overview: Inhibition of germination of Lepidium sativum at 0.1 mM or 1 mM after 5 days relative to untreated control
- Assay type: functional
assay readout: inhibition (INH)

compound	observed result
C=C1C(=O)C[C@H]2C(=C)CC[C@H]3C(=C)C(=O)O[C@@H]3[C@@H]12 [DEHYDROZALUZANIN C]	>40%
C=C1CC[C@H]2C(=C)CC[C@@H]3[C@H](OC(=O)[C@H]3CO)[C@@H]12	<20%
C=C1CC[C@H]2C(=C)CC[C@H]3C(=C)C(=O)O[C@@H]3[C@@H]12 [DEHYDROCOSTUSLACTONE]	20%
C=C1C(=O)O[C@H]2[C@H]1CCC(=C)[C@@H]1C[C@@H](O)C(=C)[C@@]12O [5ALPHA-HYDROXYISOZALUZANIN C]	>40%
C=C1[C@@H]2[C@H]3OC(=O)C(=C)[C@@H]3CCC(=C)[C@@H]2C[C@H]1O [ISOZALUZANIN C]	>40%
COc1nc(C)nc(NC(=O)NS(=O)(=O)c2ccccc2OCCCl)n1 [LOGRAN]	20%
C=C1C(=O)O[C@H]2[C@H]1CCC(=C)[C@]13C[C@@H](O)C(=C)[C@]21OC(C)(C)O3	20%
C=C1C(=O)O[C@H]2[C@H]1CCC(=C)[C@@H]1CCC(=C)[C@@]12O	<20%
C=C1[C@@H]2[C@H]3OC(=O)C(=C)[C@@H]3CCC(=C)[C@@H]2C[C@@H]1O [ZALUZANIN C]	<20%
